B1: tRNA (parent)
chain: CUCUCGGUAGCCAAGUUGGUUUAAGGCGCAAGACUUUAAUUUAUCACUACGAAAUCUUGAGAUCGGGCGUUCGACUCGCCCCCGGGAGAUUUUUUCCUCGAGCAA

Variants of: B1
assay-procedure: nonsense suppression (GFP-seq) (ratio to wild type); higher = more function; SUP4oc tRNA, yeast GFP reporter sort-seq
Variants at the floor of the assay were thinned out.
List of nonsense suppression values.
Form rule: numeric answer, no unit written next to it.

Some entries whose results are on file:
construct-sequence: CCCUCGGUAGCCAAGUUGGUUUGAGGCGCAAGACUUUAAUUUAUCACUACGAAAUCUUGAGAUCGGGCGUUCGACUCGCCCCCGGGAGAUUUUUUCCUCGAGCAA [U2C A23G]
nonsense suppression: 0.0274
//
construct-sequence: CCCUCGGUAGCCAAGUUGGUCUAAGGCGCAAGACUUUAAUUUAUCACUACGAAAUCUUGAGAUCGGGCGUUCGACUCGCCCCCGGGAGAUUUUUUCCUCGAGCAA [U2C U21C]
nonsense suppression: 0.203
//
construct-sequence: CUCUCGGUAGCCAAGGUGGUUAAAGGCGCAAGACUUUAAUUUAUCACUACGAAAUCUUGAGAUCGGGCGUUCGACUCGCCCCCGGGAGAUUUUUUCCUCGAGCAA [U16G U22A]
nonsense suppression: 0.872
//
construct-sequence: CUCUCGGUAGCCAAGUUGGUGUAAGGCACAGGACUUUAAUUUAUCACUACGAAAUCUUGAGAUCGGGCGUUCGACUCGCCCCCGGGAGAUUUUUUCCUCGAGCAA [U21G G28A A31G]
nonsense suppression: 0.266
//
construct-sequence: CUCUCGGUUGCCAAAUUGGUUUAAGGCGCAAGACUUUAAUUUAUCACUACGAAAUCUUGAGAUCGGGCGUUCGACUCGCCCCCGGGAGAUUUUUUCCUCGAGCAA [A9U G15A]
nonsense suppression: 0.0449
//
construct-sequence: CUCUCGGUAGCCAAGUGGGUUUAAGGCACAAGACUUUAAUUUAUCACUACGAAAUCUUGAGAUCGGGCGUUCGACUCGCCCCCGGGAGAUUUUUUCCUCGAGCAA [U17G G28A]
nonsense suppression: 1.12

Need nonsense suppression of CUCUCGGUAGCCAAGUUGGUUUAAGGCGCAAGACUUUAAUUUAUCACUACGAAAUCUUGAAAUCGGGUGUUCGACUCGCCCCCGGGAGAUUUUUUCCUCGAGCAA [G61A C68U] , thanks.
0.609

Need nonsense suppression of CUCUCGGUAGCCAAGUUGGUUUAAGGCGCAAGACUUUAAUUUAUCACUACGAAACCUUGAGAUCGGGCGUUCGACUCGCCCCCGGCAGAUUUUUUCCUCGAGCAA [U55C G86C] , thanks.
0.164

Need nonsense suppression of CCCUCGGUCGCCAAGUUGGUUUAAGGCGCAAGACUUUAAUUUAUCACUACGAAAUCUUGAGAUCGGGCGUUCGAAUCGCCCCCGGGAGAUUUUUUCCUCGAGCAA [U2C A9C C75A] , thanks.
0.038

Need nonsense suppression of CACUCGGUAGCCAAGUUGGUUUAAGGCGCAAGACUUUAAUUUAUCACUACGAAAUCUUGAAAUCGGGCGUUCGACUCGCCCCCGGGAGAUUUUUUCCUCGAGCAA [U2A G61A] , thanks.
0.0448
